System: Staphylococcus sp.
Test: in vitro antibacterial evaluation, MIC by broth dilution
Type: cell-based
Conditions: broth dilution, 18 hours at 35° C.
Field 'label' (enum: Satisfied / Not satisfied). Set to Satisfied when MIC Staphylococcus aureus-SMITH (GC 4543) is strictly under 8 µg/mL; else Not satisfied.

compound	qualitative_label
CC(c1ccccc1)C1NC(=O)CNC(=O)C(CO)NC(=O)C(C(O)C2CN(c3ncccn3)C(=N)N2C2OC(CO)C(O)C(O)C2O)NC(=O)C(C(O)C2CNC(=Nc3ncccn3)N2)NC(=O)C(Cc2ccc(OC3OC(CO)C(OC4OC5COC6(OC5C(O)C4O)C4CC5CC(C4)CC6C5)C(O)C3O)cc2)NC1=O (stereo not shown)	Not satisfied
CC(c1ccccc1)C1NC(=O)CNC(=O)C(CO)NC(=O)C(C(O)C2CNC(=N)N2C2OC(CO)C(O)C(O)C2O)NC(=O)C(C(O)C2CNC(=N)N2)NC(=O)C(Cc2ccc(OC3OC(CO)C(OC4OC(CO)C(OCC=Cc5ccc(N(C)C)cc5)C(O)C4O)C(O)C3O)cc2)NC1=O (stereo not shown) [Example 243a]	Not satisfied
CC(c1ccccc1)C1NC(=O)CNC(=O)C(CO)NC(=O)C(C(O)C2CNC(=N)N2C2OC(CO)C(O)C3OC(C)(C)OC32)NC(=O)C(C(O)C2CNC(=N)N2)NC(=O)C(Cc2ccc(OC3OC(CO)C(OC4OC5COC(C)(C)OC5C5OC(C)(C)OC45)C4OC(C)(C)OC34)cc2)NC1=O (stereo not shown) [Example 229b]	Not satisfied
COc1ccc(COCC2OC(OC3C(CO)OC(Oc4ccc(CC5NC(=O)C(C(C)c6ccccc6)NC(=O)CNC(=O)C(CO)NC(=O)C(C(O)C6CNC(=N)N6C6OC(CO)C(O)C(O)C6O)NC(=O)C(C(O)C6CNC(=N)N6)NC5=O)cc4)C(O)C3O)C(O)C(O)C2O)cc1 (stereo not shown)	Satisfied
CC(c1ccccc1)C1NC(=O)CNC(=O)C(CO)NC(=O)C(C(O)C2CNC(=N)N2C2OC(CO)C(O)C(O)C2O)NC(=O)C(C(O)C2CNC(=N)N2)NC(=O)C(Cc2ccc(OC3OC(CO)C(OC4OC(COCC=Cc5ccc(N(C)C)cc5)C(O)C(O)C4O)C(O)C3O)cc2)NC1=O (stereo not shown)	Not satisfied
CC(c1ccccc1)C1NC(=O)CNC(=O)C(CO)NC(=O)C(CC2CNC(=N)N2C2OC(CO)C(O)C(O)C2O)NC(=O)C(CC2CNC(=N)N2)NC(=O)C(Cc2ccc(OC3OC(CO)C(OC4OC(CO)C(O)C(O)C4OCc4ccc(OCc5ccccc5)cc4)C(O)C3O)cc2)NC1=O (stereo not shown) [Example 246c]	Not satisfied
CC(c1ccccc1)C1NC(=O)CNC(=O)C(CO)NC(=O)C(CC2CNC(=N)N2C2OC(CO)C(O)C(O)C2O)NC(=O)C(CC2CNC(=N)N2)NC(=O)C(Cc2ccc(OC3OC(CO)C(OC4OC(CO)C(OCc5ccc(OCc6ccccc6)cc5)C(O)C4O)C(O)C3O)cc2)NC1=O (stereo not shown) [Example 246a]	Satisfied
CC(c1ccccc1)C1NC(=O)CNC(=O)C(CO)NC(=O)C(C(O)C2CN(c3nc4ccccc4s3)C(=N)N2C2OC(CO)C(O)C(O)C2O)NC(=O)C(C(O)C2CNC(=Nc3nc4ccccc4s3)N2)NC(=O)C(Cc2ccc(OC3OC(CO)C(OC4OC(CO)C(O)C(O)C4O)C(O)C3O)cc2)NC1=O (stereo not shown)	Not satisfied
CCCCCNC(=O)OC1C(CO)OC(OC2C(CO)OC(Oc3ccc(CC4NC(=O)C(C(C)c5ccccc5)NC(=O)CNC(=O)C(CO)NC(=O)C(C(O)C5CNC(=N)N5C5OC(CO)C(O)C(O)C5O)NC(=O)C(C(O)C5CNC(=N)N5)NC4=O)cc3)C(O)C2O)C(O)C1O (stereo not shown)	Not satisfied
COc1ccc2cc(COC3C(OC4C(CO)OC(Oc5ccc(CC6NC(=O)C(C(C)c7ccccc7)NC(=O)CNC(=O)C(CO)NC(=O)C(C(O)C7CNC(=N)N7C7OC(CO)C(O)C(O)C7O)NC(=O)C(C(O)C7CNC(=N)N7)NC6=O)cc5)C(O)C4O)OC(CO)C(O)C3O)ccc2c1 (stereo not shown) [Example 230c]	Not satisfied

---

Listed next: entries and their corresponding MIC Streptococcus pneumoniae (GC 1894).
Test system: Streptococcus sp.
Assay: in vitro antibacterial evaluation, MIC by broth dilution
Type: cell-based
Conditions: Streptococcus pneumoniae (GC 1894); broth dilution, 18 hours at 35° C.

compound	MIC Streptococcus pneumoniae (GC 1894)
CSc1ccc(C2OCC3OC(OC4C(CO)OC(Oc5ccc(CC6NC(=O)C(C(C)c7ccccc7)NC(=O)CNC(=O)C(CO)NC(=O)C(C(O)C7CNC(=N)N7C7OC(CO)C(O)C(O)C7O)NC(=O)C(C(O)C7CNC(=N)N7)NC6=O)cc5)C(O)C4O)C(O)C(O)C3O2)cc1 (stereo not shown)	<0.06 µg/mL
Cc1cccc(C2OCC3OC(OC4C(CO)OC(Oc5ccc(CC6NC(=O)C(C(C)c7ccccc7)NC(=O)CNC(=O)C(CO)NC(=O)C(C(O)C7CNC(=N)N7C7OC(CO)C(O)C(O)C7O)NC(=O)C(C(O)C7CNC(=N)N7)NC6=O)cc5)C(O)C4O)C(O)C(O)C3O2)c1 (stereo not shown)	<0.06 µg/mL
Cc1cc(C2OCC3OC(OC4C(CO)OC(Oc5ccc(CC6NC(=O)C(C(C)c7ccccc7)NC(=O)CNC(=O)C(CO)NC(=O)C(C(O)C7CNC(=N)N7C7OC(CO)C(O)C(O)C7O)NC(=O)C(C(O)C7CNC(=N)N7)NC6=O)cc5)C(O)C4O)C(O)C(O)C3O2)ccc1[N+](=O)[O-] (stereo not shown)	0.5 µg/mL
CC(c1ccccc1)C1NC(=O)CNC(=O)C(CO)NC(=O)C(C(O)C2CNC(=N)N2C2OC(CO)C(O)C(O)C2O)NC(=O)C(C(O)C2CNC(=N)N2)NC(=O)C(Cc2ccc(OC3OC(CO)C(OC4OC5COC(c6cccc(-c7ccccc7)c6)OC5C(O)C4O)C(O)C3O)cc2)NC1=O (stereo not shown)	<0.06 µg/mL
CC(c1ccccc1)C1NC(=O)CNC(=O)C(CO)NC(=O)C(C(O)C2CNC(=N)N2C2OC(CO)C(O)C(O)C2O)NC(=O)C(C(O)C2CNC(=N)N2)NC(=O)C(Cc2ccc(OC3OC(CO)C(OC4OC5COC(CC6CCCCC6)OC5C(O)C4O)C(O)C3O)cc2)NC1=O (stereo not shown)	<0.06 µg/mL
CC(c1ccccc1)C1NC(=O)CNC(=O)C(CO)NC(=O)C(C(O)C2CNC(=N)N2C2OC(CO)C(O)C(O)C2O)NC(=O)C(C(O)C2CNC(=N)N2)NC(=O)C(Cc2ccc(OC3OC(CO)C(OC4OC5COC(c6ccc7c(c6)OCO7)OC5C(O)C4O)C(O)C3O)cc2)NC1=O (stereo not shown)	<0.06 to 0.12 µg/mL
COc1cc(C2OCC3OC(OC4C(CO)OC(Oc5ccc(CC6NC(=O)C(C(C)c7ccccc7)NC(=O)CNC(=O)C(CO)NC(=O)C(C(O)C7CNC(=N)N7C7OC(CO)C(O)C(O)C7O)NC(=O)C(C(O)C7CNC(=N)N7)NC6=O)cc5)C(O)C4O)C(O)C(O)C3O2)ccc1[N+](=O)[O-] (stereo not shown)	<0.06 µg/mL

---

Test system: Streptococcus sp.
Assay: in vitro antibacterial evaluation, MIC by broth dilution
Type: cell-based
Conditions: broth dilution, 18 hours at 35° C.
Listed next: entries and their corresponding MIC Streptococcus agalactiae (GC 4564).
quantity_measured: MIC Streptococcus agalactiae (GC 4564)

molecule	reported
CC(c1ccccc1)C1NC(=O)CNC(=O)C(CO)NC(=O)C(C(O)C2CN(c3nc4ccccc4o3)C(=N)N2C2OC(CO)C(O)C(O)C2O)NC(=O)C(C(O)C2CNC(=Nc3nc4ccccc4o3)N2)NC(=O)C(Cc2ccc(OC3OC(CO)C(OC4OC5COC6(OC5C(O)C4O)C4CC5CC(C4)CC6C5)C(O)C3O)cc2)NC1=O (stereo not shown)	4 µg/mL
CC(C1CCCCC1)C1NC(=O)CNC(=O)C(CO)NC(=O)C(C(O)C2CNC(=N)N2C2OC(CO)C(O)C(O)C2O)NC(=O)C(C(O)C2CNC(=N)N2)NC(=O)C(Cc2ccc(OC3OC(CO)C(OC4OC5COC(c6ccccc6)OC5C(O)C4O)C(O)C3O)cc2)NC1=O (stereo not shown)	<0.12 µg/mL
CC(c1ccccc1)C1NC(=O)CNC(=O)C(CO)NC(=O)C(C(O)C2CNC(=N)N2C2OC(CO)C(O)C(O)C2O)NC(=O)C(C(O)C2CNC(=N)N2)NC(=O)C(Cc2ccc(OC3OC(CO)C(OC4OC5COC6(CCCCC6(C)C)OC5C(O)C4O)C(O)C3O)cc2)NC1=O (stereo not shown)	<0.12 µg/mL
CC(c1ccccc1)C1NC(=O)CNC(=O)C(CO)NC(=O)C(C(O)C2CNC(=N)N2C2OC(CO)C(O)C(O)C2O)NC(=O)C(C(O)C2CNC(=N)N2)NC(=O)C(Cc2ccc(OC3OC(CO)C(OC4OC(COC(=O)NCc5ccccc5)C(O)C(O)C4O)C(O)C3O)cc2)NC1=O (stereo not shown) [Example 257b]	1 µg/mL
